Source of measurements: ChEMBL document CHEMBL1133934

Could you please report measured MD for the items listed next?
System: Rattus norvegicus
measurement protocol: Percent of Acetylcholine (ACh) released above baseline in rat striatum at the dose of 10 mg/kg p.o. (0-2h)
Type: functional
run parameters: route oral
Give bare numbers, in %.

Illustrative cases are given below, each with its answer.
{"smiles notation": "COc1ccc(S(=O)(=O)c2ccc(C3(C4CCN(C5CCN(C(=O)c6cccc7c(Br)cccc67)CC5)CC4)OCCO3)cc2)cc1", "unit info": "%", "numeric readout": 125}
{"smiles notation": "COc1ccc(S(=O)(=O)c2ccc(C3(C4CCN(C5CCN(C(=O)c6cccc7c(F)cccc67)CC5)CC4)OCCO3)cc2)cc1", "unit info": "%", "numeric readout": 140}
{"smiles notation": "COc1ccc(S(=O)(=O)c2ccc(C3(C4CCN(C5CCN(C(=O)c6ccc(F)c7ccccc67)CC5)CC4)OCCO3)cc2)cc1", "unit info": "%", "numeric readout": 180}
{"smiles notation": "COc1ccc(S(=O)(=O)c2ccc(C3(C4CCN(C5CCN(C(=O)c6cccc7c(F)cc(F)cc67)CC5)CC4)OCCO3)cc2)cc1", "unit info": "%", "numeric readout": 133}

I'd like to know its MD. The compound in question is COc1ccc(S(=O)(=O)c2ccc(C3(C4CCN(C5CCN(C(=O)c6cccc7c(F)ccc(F)c67)CC5)CC4)OCCO3)cc2)cc1
120
